- target.entity: T1, human SIRPβ isoform 1 (human, UniProt O00241 30-148)
- T1 construct: also called SIRPb; sirpb1
- assay.method.text: SPR, Langmuir fit
Criterion: koff strictly less than 0.0002 s⁻¹. Met: fulfilled. Not met: not fulfilled.

>  <binder>
S65 (scFv, V domains shown, also called clone 65) VH: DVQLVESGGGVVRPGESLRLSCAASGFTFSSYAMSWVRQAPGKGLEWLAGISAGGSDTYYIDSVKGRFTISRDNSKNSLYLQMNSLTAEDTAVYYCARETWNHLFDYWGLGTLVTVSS VL: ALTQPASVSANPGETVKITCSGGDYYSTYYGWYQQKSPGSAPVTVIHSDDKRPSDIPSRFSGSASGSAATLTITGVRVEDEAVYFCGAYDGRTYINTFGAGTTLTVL

>  <assigned.label>
fulfilled

$$$$
>  <binder>
S191 (scFv, V domains shown, also called clone 191) VH: DVQLVESGGGVVRPGESLRLSCAASGFSFSSYAMNWVRQAPGEGLEWVSRINSGGGGTDYAESVKGRFTISRDNSENTLYLQMNSLRAEDTAVYYCAKQYDWNGFFDYWGLGALVTVSS VL: ETVLTQSPATLSVSPGERATLSCRASQTVGSKLAWHQQKPGQAPRLLIYDATNRATGIPDRFSGSGSGTDFTLTISGLQTEDSAVYYCQQYYYWPPYRFGGGTKVEIK

>  <assigned.label>
fulfilled

$$$$
>  <binder>
S69 (scFv, V domains shown, also called clone 69) VH: DLQLVESGGGVVRPGESLRLSCAASGFTFSSYAMSWVRQAPGKGLEWLAGISAGGSDTYYIDSVKGRFTISRDNSKNSLYLQMNSLTAEDTAVYYCARETWNHLFDYWGLGTLVTVSS VL: ALTQPASVSANPGETVKIICSGGDYYSTYYGWYQQKSPGSAPVTVIHSDDKRPSDIPSRFSGSASGSAATLTITGVRVEDEAVYFCGAYDGRTYINTFGAGTTLTVL

>  <assigned.label>
not fulfilled

$$$$

A record lists S59 (scFv, V domains shown, also called clone 59) VH: DVQLVESGGGVVRPGESLRLSCAVSGFRFSSHAMSWVRQAPGKGLEWVSGISSGGDTYYVDSVKGRFTISRDNSKNTLYLQVNSLTAEDTAIYYCARETWNHLFDYWGLGTLVTVSS VL: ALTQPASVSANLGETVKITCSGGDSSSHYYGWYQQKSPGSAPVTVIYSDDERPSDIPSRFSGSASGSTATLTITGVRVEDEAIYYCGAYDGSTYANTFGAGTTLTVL . Is its koff below 0.0002 s⁻¹?
fulfilled

A record lists S206 (scFv, V domains shown) VH: DVQLVESGGAVVRPGETLRLSCTASGFTFSSYAMSWVRQAPGKGLEWVSGISASGSDTYYADSVKGRSTISRDNSKNTLYLRMSSLTAEDTAVYYCARETWNHLFDYWGLGTLVTLSS VL: ALTQPASVSANPGETVKITCSGGGTSSYYGWYQQKSPGSAPVTLIHSDDKRPSDIPSRFSGSASGSTATLTITGVQAEDEAVYYCGGYDYTTYVNTFGAGTTLTVL . Is its koff below 0.0002 s⁻¹?
not fulfilled

A record lists S30 (scFv, V domains shown, also called clone 30) VH: DVQLVESGGGVVRPGESLRLSCEASGFTFSSDAMSWVRQAPGKGLEWVSGISSGSSTYYGGSVKGRFTISRDNSKNTLYLQMNSLTAEDTAVYYCARETWNHLFDYWGLGTLVTVSS VL: ALTQPASVSASPGETVEITCSGGSDSSYYYGWYQQKSPGSAPVTVIYSDNKRPSNIPSRFSGSASGSTATLTITGVRVEDEAVYYCGGYDYSTYTNPFGAGTTLTVL . Is its koff below 0.0002 s⁻¹?
not fulfilled

A record lists S132 (scFv, V domains shown) VH: DVQLVESGGGVVRPGESLRLSCAASGFSFRSYAMNWVRQAPGEGLEWVSRINSGGGGTDYADSVKGRFTISRDNSKNTLYLQMNSLRAEDTAVYYCAKQYDWNSFFDYWGLGALVTVSS VL: ETVLTQSPATLSVSPGERATLSCRASQTVGSKLAWHQQKPGQAPRLLIYDASNRATGIPDRFSGSGSGTDFTLTISSPQTEDSAVYYCQQYYYWPPYRFGGGTKVEIK . Is its koff below 0.0002 s⁻¹?
fulfilled

A record lists S76 (scFv, V domains shown, also called clone 76) VH: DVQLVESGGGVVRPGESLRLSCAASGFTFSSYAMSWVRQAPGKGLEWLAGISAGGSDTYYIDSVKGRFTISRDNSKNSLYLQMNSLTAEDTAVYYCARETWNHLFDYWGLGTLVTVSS VL: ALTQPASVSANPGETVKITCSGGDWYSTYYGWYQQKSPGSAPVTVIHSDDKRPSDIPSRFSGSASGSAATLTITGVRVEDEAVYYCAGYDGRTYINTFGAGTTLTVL . Is its koff below 0.0002 s⁻¹?
fulfilled

A record lists S149 (scFv, V domains shown, scFv-Fc format (VL-linker-VH on human IgG1 Fc)) VH: DVQLVESGGGVVRPGESLRLSCAASGFTFSNFAMNWVRQAPGEGLEWVSLISVTATTYYADSVKGRFTISRDNSKNTLYLQMNSLRAEDTAVYYCAKVTWNNLFDYWGLGTLVTVSS VL: EIVLTQSPGTLSLSPGERATLSCRASQPIDSYLAWYQQKPGQAPRLLIYNTVTRATGIPDRFSGSGSGTDFTLTINRLEPEDFAVYYCQHQYDWPPYIFGGGTKVEIK . Is its koff below 0.0002 s⁻¹?
not fulfilled

A record lists S209 (scFv, V domains shown) VH: DVQLVESGGAVVRPGESLRLSCKASGFTFTNFAMSWVRQAPGEGLEWVSGISGSDDTTYYADSVKGRFTISRDNSESTLYLQMNSLRAEDTAVYYCVKDSTVSWNTFFDYWGLGTLVTVSS VL: ALTQPASVSANLGGTVKITCSGGYGSDDGSSSYYGWYQQKSPGSAPVILIYWDDKRPSDIPSRFSGSTSGSTTTLTITGVQAEDEAVYFCGTYDTSSGAIFGAGTTLTVL . Is its koff below 0.0002 s⁻¹?
fulfilled

All values here come from patent US20210363269A1.
